Population Hoechst High Intensity Objects (%) values for the compounds below.
system: HEK-293T; assay: Multiplex assay against HEK293T; type: toxicity, cell-based; conditions: human, 48 h, 1 µM, compound concentration 1 uM, replicate 1
Write the number in % without appending the unit.

The examples below pair each entry with its known result.
CCCn1c(=O)c2[nH]c(-c3cnn(Cc4cccc(C(F)(F)F)c4)c3)nc2n(CC)c1=O : 19
O=C1NC(=O)C(c2cnc3ccccn23)=C1c1cn2c3c(cc(F)cc13)CN(C(=O)N1CCCCC1)CC2 : 14
O=C(Cc1ccc(-c2ccc(OCCN3CCOCC3)cc2)cn1)NCc1ccccc1 : 16

Exercise: Recall and state the measured Population Hoechst High Intensity Objects (%) for CCn1c(=O)c(-c2ccc(-c3cncs3)cc2Cl)cc2cnc(Nc3ccc(N4CCN(C)CC4)cc3)nc21 .
Solution: 13
